Source of measurements: patent US20040176431A1

# SYSTEM UNDER TEST: CDK4/cyclin D3 (Homo sapiens)
# Sequence (P11802 whole entry): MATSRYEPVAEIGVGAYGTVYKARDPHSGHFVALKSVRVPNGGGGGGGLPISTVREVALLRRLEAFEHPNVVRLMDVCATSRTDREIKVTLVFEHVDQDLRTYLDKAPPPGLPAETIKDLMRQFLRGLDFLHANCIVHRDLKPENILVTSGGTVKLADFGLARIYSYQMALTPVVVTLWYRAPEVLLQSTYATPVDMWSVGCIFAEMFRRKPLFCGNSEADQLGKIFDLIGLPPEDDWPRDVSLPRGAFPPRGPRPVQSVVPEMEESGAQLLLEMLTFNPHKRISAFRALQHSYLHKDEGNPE
# Sequence (P30281 1-264 partner limits assumed): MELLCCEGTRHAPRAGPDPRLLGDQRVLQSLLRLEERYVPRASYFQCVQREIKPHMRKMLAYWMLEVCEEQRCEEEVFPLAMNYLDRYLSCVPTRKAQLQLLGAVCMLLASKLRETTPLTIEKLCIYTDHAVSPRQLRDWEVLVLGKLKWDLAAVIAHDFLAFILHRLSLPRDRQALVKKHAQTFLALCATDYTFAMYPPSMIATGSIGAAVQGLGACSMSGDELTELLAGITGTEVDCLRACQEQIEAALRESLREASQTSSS
# ASSAY EXPLANATION: Inhibition of CDK4/Cyclin D retinoblastoma kinase activity
# MEASUREMENT CONTEXT: apparent Ki, Rb fragment substrate
READOUT: Ki (nM)

Nc1nc(Nc2ccc(Sc3ccccn3)cc2)sc1C(=O)c1c(Cl)cccc1Cl :: 190
CC(C)OCCNS(=O)(=O)c1ccc(Nc2nc(N)c(C(=O)c3c(F)cccc3F)s2)cc1 :: 14
CSc1ccc(Nc2nc(N)c(C(=O)c3c(Cl)cccc3Cl)s2)cc1 :: 30
Cc1ccc(CCNS(=O)(=O)c2ccc(Nc3nc(N)c(C(=O)c4c(F)cccc4F)s3)cc2)cc1 :: 24
Nc1nc(Nc2ccc(S(=O)(=O)NCCO)cc2)sc1C(=O)c1c(F)cccc1F :: 28
Nc1nc(Nc2ccc(S(=O)(=O)Nc3ccccc3)cc2)sc1C(=O)c1c(F)cccc1F :: 76
Cc1ccc(CNS(=O)(=O)c2ccc(Nc3nc(N)c(C(=O)c4c(F)cccc4F)s3)cc2)s1 :: 15
Nc1nc(Nc2ccc(S(=O)(=O)NCCc3ccc(F)cc3)cc2)sc1C(=O)c1c(F)cccc1F :: 14

[a] CS(=O)(=O)c1ccc(Nc2nc(N)c(C(=O)c3c(F)cccc3F)s2)cc1
[b] Nc1nc(Nc2ccc(S(=O)(=O)NCC3CCCCN3)cc2)sc1C(=O)c1c(F)cccc1F (centres unmarked)
[c] Nc1nc(Nc2ccc(S(=O)(=O)NCCCCCO)cc2)sc1C(=O)c1c(F)cccc1F
[d] CS(=O)(=O)c1ccc(Nc2nc(N)c(C(=O)c3c(Cl)cccc3Cl)s2)cc1
[e] CC(CCCC(C)(C)O)NS(=O)(=O)c1ccc(Nc2nc(N)c(C(=O)c3c(F)cc(F)cc3F)s2)cc1 (centres unmarked)
hey, can you rank those compounds up there by Ki? biggest number first please Reply with the labels, ordered as the question asks.
a, d, b, c, e
(a: 73 nM, d: 42 nM, b: 20 nM, c: 12 nM, e: 6.2 nM)

[1] Nc1nc(Nc2ccc(S(=O)(=O)NCCCc3ccccc3)cc2)sc1C(=O)c1c(F)cccc1F
[2] CCN(CC)CCCNS(=O)(=O)c1ccc(Nc2nc(N)c(C(=O)c3c(F)cccc3F)s2)cc1
[3] Cc1ccc(CNS(=O)(=O)c2ccc(Nc3nc(N)c(C(=O)c4c(F)cc(F)cc4F)s3)cc2)o1
In this exercise, place the 3 compounds in ascending sequence of their recorded Ki. In plain terms: list the labels in the order you were asked to.
2, 1, 3
(2: 8.9 nM, 1: 16 nM, 3: 100 nM)

---

# SYSTEM UNDER TEST: CDK4/cyclin D3 (Homo sapiens)
# Construct: made in house; host or cells: insect cells (baculovirus co-infection)
# ASSAY EXPLANATION: Inhibition of CDK4/Cyclin D retinoblastoma kinase activity
# Assay type: biochemical
# MEASUREMENT CONTEXT: test compound at 0.1 μM; read-out: % Inhib CDK4/D @ 0.1 μM
# Procedure: Cyclin-dependent kinase activity was measured by quantifying the enzyme-catalyzed, time-dependent incorporation of radioactive phosphate from [^32P]ATP or [^33P]ATP into a protein substrate. […] The phosphorylated substrate was then captured on a nitrocellulose or phosphocellulose membrane using a 96-well filtration manifold, and unincorporated radioactivity was removed by repeated washing with 0.85% phosphoric acid. Radioactivity was quantified by exposing the dried membranes to a phosphorimager. […]
READOUT: inhibition at 0.1 µM (%)

CN(c1ccc(S(=O)(=O)CC(O)CO)cc1)c1nc(N)c(C(=O)c2c(Cl)cccc2Cl)s1 (stereo not shown) :: 35

[a] NC(=O)C[S+]([O-])c1cccc(Nc2nc(N)c(C(=O)c3c(Cl)cccc3Cl)s2)c1 (stereo not shown)
[b] CCCSc1ccc(Nc2nc(N)c(C(=O)c3c(Cl)cccc3Cl)s2)cc1
[c] Nc1nc(Nc2cccc([S+]([O-])CC3CNC(=O)O3)c2)sc1C(=O)c1c(Cl)cccc1Cl (stereo not shown)
hey, can you rank those compounds up there by inhibition at 0.1 µM? biggest number first please Write the labels, ordered according to the request.
a, c, b
